Reported Potency ranking is given for each of the following molecules.
Test system: primary macaque hepatocytes (PMHs)
Method Summary: CometChip assay
Condition Details: PMH, rank by BMD50 among nine positive compounds
Could you respond with only the numeric value?

- Molecule: "CCN(N=O)C(N)=O"
  Potency ranking: 8
- Molecule: "Cc1c2ccccc2c(C)c2c1ccc1ccccc12"
  Potency ranking: 3
- Molecule: "[Cl][Cd][Cl] [CdCl2, cadmium chloride]"
  Potency ranking: 1
- Molecule: "O=P1(N(CCCl)CCCl)NCCCO1 (centres unmarked) [CPA, cyclophosphamide]"
  Potency ranking: 7

API: the following record is the query input.
Specify measured Potency ranking for `Cc1ccc(N)cc1N` . 9

---

Tested on: primary macaque hepatocytes (PMHs)
Method Summary: Cytotoxicity by ATP assay
Condition Details: PMH, 24-h treatment; maximum concentration
Test Readout: Max. con. (µM)
Please state the figure in µM; there is no need to write the unit.

- Molecule: "O=[N+]([O-])c1cc[n+]([O-])c2ccccc12 [4-NQO, 4-nitroquinoline 1-oxide]"
  Test Readout: "Max. con."
  Endpoint Unit: "µM"
  Val: 7.5
- Molecule: "CCN(N=O)C(N)=O"
  Test Readout: "Max. con."
  Endpoint Unit: "µM"
  Val: 3200
- Molecule: "Cc1ccc(N)cc1N"
  Test Readout: "Max. con."
  Endpoint Unit: "µM"
  Val: 8000
- Molecule: "CCc1cc(C(N)=S)ccn1 [Ethionamide]"
  Test Readout: "Max. con."
  Endpoint Unit: "µM"
  Val: 2000
- Molecule: "O=P1(N(CCCl)CCCl)NCCCO1 (stereo not drawn) [CPA, cyclophosphamide]"
  Test Readout: "Max. con."
  Endpoint Unit: "µM"
  Val: 5000
- Molecule: "COc1cc(/C=C/C(=O)CC(=O)/C=C/c2ccc(O)c(OC)c2)ccc1O"
  Test Readout: "Max. con."
  Endpoint Unit: "µM"
  Val: 40
- Molecule: "Nc1ccccc1C(=O)O"
  Test Readout: "Max. con."
  Endpoint Unit: "µM"
  Val: 5000
- Molecule: "Cc1c2ccccc2c(C)c2c1ccc1ccccc12"
  Test Readout: "Max. con."
  Endpoint Unit: "µM"
  Val: 500
- Molecule: "[Cl][Cd][Cl] [CdCl2, cadmium chloride]"
  Test Readout: "Max. con."
  Endpoint Unit: "µM"
  Val: 4
- Molecule: "Oc1ccc(O)cc1 [HQ, hydroquinone]"
  Test Readout: "Max. con."
  Endpoint Unit: "µM"
  Val: 200

Consider now this further molecule.
Answer briefly: Max. con. recorded on primary macaque hepatocytes (PMHs) for `Oc1cccc(O)c1` 1000

---

Method Summary: Cytotoxicity by ATP assay
Condition Details: rhesus macaque
Test Readout: viability at 24 h, 2500 µM (%)
Answer with a number only, understood to be in %.

Identify the reported viability at 24 h, 2500 µM for the following entry. O=P1(N(CCCl)CCCl)NCCCO1 (stereo not shown) [CPA, cyclophosphamide] 50

---

Reported BMDU/BMDL values for the following compounds.
System: primary macaque hepatocytes (PMHs)
Method Summary: CometChip assay
Condition Details: PMH
Response field accepts a number only; no unit should be typed.

Use the examples below as a reference point.
- Compound: "O=P1(N(CCCl)CCCl)NCCCO1 (centres unmarked) [CPA, cyclophosphamide]"
  BMDU/BMDL: 2.3
- Compound: "Cc1c2ccccc2c(C)c2c1ccc1ccccc12"
  BMDU/BMDL: 2.4
- Compound: "Cc1ccc(N)cc1N"
  BMDU/BMDL: 2.6
- Compound: "[Cl][Cd][Cl] [CdCl2, cadmium chloride]"
  BMDU/BMDL: 2.3

Output BMDU/BMDL of `CCN(N=O)C(N)=O` 2.3
